- tgt: angiotensin-induced vasoconstriction (rabbit aorta) (Oryctolagus cuniculus)
- Construct: The thoracic aortas were removed and cleaned of excess fat and connective tissue; from tissue; host or cells: thoracic aorta rings of New Zealand white rabbits (animals from Hazelton)
- Sequence (P34976 whole entry): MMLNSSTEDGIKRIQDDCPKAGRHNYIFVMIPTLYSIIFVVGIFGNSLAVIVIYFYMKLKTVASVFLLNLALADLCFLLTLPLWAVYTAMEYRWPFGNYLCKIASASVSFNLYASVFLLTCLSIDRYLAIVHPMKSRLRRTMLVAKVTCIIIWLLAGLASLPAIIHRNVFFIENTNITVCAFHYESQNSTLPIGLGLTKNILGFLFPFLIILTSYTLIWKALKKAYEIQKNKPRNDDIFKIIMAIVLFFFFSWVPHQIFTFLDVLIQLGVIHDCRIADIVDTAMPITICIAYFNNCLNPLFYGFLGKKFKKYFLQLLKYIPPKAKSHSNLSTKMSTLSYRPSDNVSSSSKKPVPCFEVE
- protocolDetails: Rabbit Aorta Test System: antagonism of angiotensin II contraction of aortic rings
- Parameters: species or system New Zealand white rabbits
- testContext: contraction to AII 10^-10 to 10^-7 M, 30 minutes incubation with compound; pA2 = -log KB
experimentalEndpoint: Kb (nM)
Write the number in nM without appending the unit.

molecule: CCCCCC[C@H](C(=O)N1C[C@@H](Oc2ccc(OP(=O)(O)O)cc2)C[C@H]1C(=O)O)n1cnc(NC(=O)c2ccccc2S(=O)(=O)O)c1
tgt: angiotensin-induced vasoconstriction (rabbit aorta) (Oryctolagus cuniculus)
experimentalEndpoint: Kb
measuredValue: 0.794
--
molecule: CCCCCC[C@H](C(=O)N1C[C@@H](Oc2ccc(NS(C)(=O)=O)cc2)C[C@H]1C(=O)O)n1cnc(NC(=O)c2ccccc2S(=O)(=O)O)c1
tgt: angiotensin-induced vasoconstriction (rabbit aorta) (Oryctolagus cuniculus)
experimentalEndpoint: Kb
measuredValue: 0.126
--
molecule: CCCCCC[C@H](C(=O)N1C[C@@H](Oc2ccc(OC)c(OC)c2)C[C@H]1C(=O)O)n1cnc(NC(=O)c2cccc(O)c2C(=O)O)c1
tgt: angiotensin-induced vasoconstriction (rabbit aorta) (Oryctolagus cuniculus)
experimentalEndpoint: Kb
measuredValue: 20

Record CCCCCC[C@H](C(=O)N1C[C@@H](Oc2ccc(OCC(C)C)cc2)C[C@H]1C(=O)O)n1cnc(NC(=O)c2ccccc2S(=O)(=O)O)c1 : what is its Kb with angiotensin-induced vasoconstriction (rabbit aorta) (Oryctolagus cuniculus)?
12.6

Record CCCCCCC(C(=O)N1C[C@@H](Oc2ccc(O)cc2)C[C@H]1C(=O)O)n1cnc(NC(=O)c2ccccc2S(=O)(=O)O)c1 (single isomer, unassigned) : what is its Kb with angiotensin-induced vasoconstriction (rabbit aorta) (Oryctolagus cuniculus)?
1.26

Record CCCCCC[C@H](C(=O)N1C[C@@H](Oc2ccc(OC)c(OC)c2)C[C@H]1C(=O)O)n1cnc(NC(=O)c2ccccc2S(=O)(=O)O)c1 : what is its Kb with angiotensin-induced vasoconstriction (rabbit aorta) (Oryctolagus cuniculus)?
15.8

---

- tgt: angiotensin-induced vasoconstriction (rabbit aorta) (Oryctolagus cuniculus)
- Construct: The thoracic aortas were removed and cleaned of excess fat and connective tissue; from tissue; host or cells: thoracic aorta rings of New Zealand white rabbits (animals from Hazelton)
- protocolDetails: Rabbit Aorta Test System: antagonism of angiotensin II contraction of aortic rings
- Parameters: species or system New Zealand white rabbits
- testContext: contraction to AII 10^-10 to 10^-7 M, 30 minutes incubation with compound; pA2 = -log KB
- Procedure: As previously discussed, the compounds of Formula I are potent effective antagonists of angiotensin II. The ability of representative compounds of Formula I to block angiotensin II receptor binding was determined using the adrenal glomerulosa assay. The ability to antagonize angiotensin-induced vasoconstriction was evaluated in the rabbit aorta test system. New Zealand white rabbits (Hazelton, 2-3 kg) were sacrificed by cervical dislocation. […]
Mark satisfied only when Kb stays strictly below 6 nM. Values equal to the cut-off are not satisfied.

Is Kb of CCCCCCC(C(=O)N1C[C@@H](Oc2ccccc2)C[C@H]1C(=O)O)n1cnc(NC(=O)c2cccc(O)c2C(=O)O)c1 (single isomer, unassigned) [Example 20] strictly below 6 nM?
satisfied

Is Kb of CCCCCC[C@H](C(=O)N1C[C@@H](Oc2ccc(OC(C)(C)C(=O)O)cc2)C[C@H]1C(=O)O)n1cnc(NC(=O)c2ccccc2S(=O)(=O)O)c1 [Example 58] strictly below 6 nM?
satisfied

Is Kb of CCCCCC[C@H](C(=O)N1C[C@@H](Oc2ccc(OC)cc2)C[C@H]1C(=O)O)n1cnc(NC(=O)c2cccc(O)c2C(=O)O)c1 [Example 82] strictly below 6 nM?
satisfied

Is Kb of CCCCCCC(C(=O)N1C[C@@H](Oc2cccnc2)C[C@H]1C(=O)O)n1cnc(NC(=O)c2ccccc2S(=O)(=O)O)c1 (stereo partly shown) [Example 17] strictly below 6 nM?
not satisfied

Is Kb of CCCCCC[C@H](C(=O)N1C[C@@H](Oc2ccc(C(C)(C)C)cc2)C[C@H]1C(=O)O)n1cnc(NC(=O)c2ccccc2S(=O)(=O)O)c1 [Example 25] strictly below 6 nM?
not satisfied

Is Kb of CCCCCC[C@H](C(=O)N1C[C@@H](Oc2ccc(-n3cncn3)cc2)C[C@H]1C(=O)O)n1cnc(NC(=O)c2ccccc2S(=O)(=O)O)c1 [Example 45] strictly below 6 nM?
satisfied

Is Kb of CCCCCC[C@H](C(=O)N1C[C@@H](Oc2ccc3c(c2)CCC3)C[C@H]1C(=O)O)n1cnc(NC(=O)c2cccc(O)c2C(=O)O)c1 [Example 88] strictly below 6 nM?
not satisfied

Is Kb of CCCCCCC(C(=O)NCCC)n1cnc(NC(=O)c2ccccc2S(=O)(=O)O)c1 (stereo not shown) [Example 2] strictly below 6 nM?
not satisfied

Is Kb of CCCCCC[C@H](C(=O)N1C[C@@H](Oc2ccc(OCC3CCCCC3)cc2)C[C@H]1C(=O)O)n1cnc(NC(=O)c2ccccc2S(=O)(=O)O)c1 [Example 56] strictly below 6 nM?
not satisfied

Is Kb of CCCCCC[C@H](C(=O)N1C[C@@H](Oc2ccc(-n3ccnc3)cc2)C[C@H]1C(=O)O)n1cnc(NC(=O)c2ccccc2S(=O)(=O)O)c1 [Example 38] strictly below 6 nM?
satisfied

Is Kb of CCCCCC[C@H](C(=O)N1C[C@@H](Oc2ccc(OC3CCCC3)cc2)C[C@H]1C(=O)O)n1cnc(NC(=O)c2ccccc2S(=O)(=O)O)c1 [Example 54] strictly below 6 nM?
satisfied

Is Kb of CCCCCC[C@H](C(=O)N1C[C@@H](Oc2ccc(S(=O)(=O)NC)cc2)C[C@H]1C(=O)O)n1cnc(NC(=O)c2ccccc2S(=O)(=O)O)c1 [Example 40] strictly below 6 nM?
satisfied

Is Kb of CCCCCC[C@H](C(=O)N1C[C@@H](Oc2ccc3oc(C(=O)O)cc3c2)C[C@H]1C(=O)O)n1cnc(NC(=O)c2ccccc2S(=O)(=O)O)c1 [Example 70] strictly below 6 nM?
satisfied
